Biological target: Peroxisome proliferator-activated receptor delta (Homo sapiens)
Sequence (Q03181 whole entry): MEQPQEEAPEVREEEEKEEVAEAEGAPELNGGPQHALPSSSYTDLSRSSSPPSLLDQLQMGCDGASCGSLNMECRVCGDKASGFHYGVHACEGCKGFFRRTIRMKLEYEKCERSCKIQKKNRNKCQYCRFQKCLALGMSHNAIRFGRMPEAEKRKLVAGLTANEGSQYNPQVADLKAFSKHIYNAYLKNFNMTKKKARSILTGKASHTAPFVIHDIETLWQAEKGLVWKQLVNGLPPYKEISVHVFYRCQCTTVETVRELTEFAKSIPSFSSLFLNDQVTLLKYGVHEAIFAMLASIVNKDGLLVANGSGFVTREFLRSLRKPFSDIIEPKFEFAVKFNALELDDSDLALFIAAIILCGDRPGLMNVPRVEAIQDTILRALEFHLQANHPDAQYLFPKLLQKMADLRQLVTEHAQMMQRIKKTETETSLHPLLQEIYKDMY
Experiment: Agonist activity at PPARdelta (unknown origin)
OBSERVED_PROPERTY: pEC50
// pEC50 here means minus log10 of the molar concentration (mol/L)

input: Look up pEC50: CCCc1c(OCCCOc2ccc(OCC(=O)O)cc2)ccc(C(C)=O)c1O
output: 7.30
